These entries and their values trace back to the NIST ThermoML archive (doi:10.1021/je700707y).

particulars: 313.15 K; 101.33 kPa; Liquid; Vibrating tube method
± gives the expanded uncertainty stated by the source.
Below, each of the molecules is paired with its reported mass density value.
Mention the unit after the number when you answer.

Some entries whose results are on file:
{"molecule": "CCOS(=O)(=O)[O-].CCn1cc[n+](C)c1 [1-ethyl-3-methylimidazolium ethyl sulfate]", "metric": "mass density", "value-observed": "1228.9 ± 3.8 kg/m3"}
{"molecule": "CCCCCC[n+]1ccn(C)c1.O=S(=O)([N-]S(=O)(=O)C(F)(F)F)C(F)(F)F", "metric": "mass density", "value-observed": "1356.9 ± 4.6 kg/m3"}

Could you now consider this next molecule?
Endpoint output: mass density of N#CC[n+]1ccccc1.O=S(=O)([N-]S(=O)(=O)C(F)(F)F)C(F)(F)F . Value? 1616.2 ± 6.6 kg/m3
